Attribute: Ki
system_name: Cannabinoid receptor 1 (Rattus norvegicus)
Sequence (P20272 whole entry): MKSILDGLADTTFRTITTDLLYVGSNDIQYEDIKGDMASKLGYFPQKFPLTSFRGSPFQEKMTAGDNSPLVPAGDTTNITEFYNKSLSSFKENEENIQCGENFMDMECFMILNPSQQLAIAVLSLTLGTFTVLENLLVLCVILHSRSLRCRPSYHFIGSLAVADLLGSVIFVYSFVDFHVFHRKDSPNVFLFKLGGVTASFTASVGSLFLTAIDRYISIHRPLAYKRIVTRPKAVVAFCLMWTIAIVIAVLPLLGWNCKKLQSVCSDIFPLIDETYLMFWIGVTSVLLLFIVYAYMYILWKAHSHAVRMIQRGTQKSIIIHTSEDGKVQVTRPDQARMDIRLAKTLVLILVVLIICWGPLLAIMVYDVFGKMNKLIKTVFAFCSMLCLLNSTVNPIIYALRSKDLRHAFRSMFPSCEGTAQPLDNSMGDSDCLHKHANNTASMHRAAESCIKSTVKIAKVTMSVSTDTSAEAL
The answer is to be given in nM; state only the numeric part.

* CCCCCn1cc(C(=O)NC23CC4CC(CC(C4)C2)C3)c(=O)n2nc(C(C)(C)C)cc12 | 675
* CCCCCn1cc(C(=O)NC2CCCCCC2)c(=O)n2nc(C(C)(C)C)cc12 | 650
* CCCCCn1cc(C(=O)NC2CCCCCC2)c(=O)n2nc(CC)cc12 | 220

Dear colleague, I am looking for the recorded Ki of the following compound: CCCCCn1cc(C(=O)NC23CC4CC(CC(C4)C2)C3)c(=O)n2nc(CC)cc12
150

----------
system_name: UniProt:Q9QZN9
Sequence (Q9QZN9 whole entry): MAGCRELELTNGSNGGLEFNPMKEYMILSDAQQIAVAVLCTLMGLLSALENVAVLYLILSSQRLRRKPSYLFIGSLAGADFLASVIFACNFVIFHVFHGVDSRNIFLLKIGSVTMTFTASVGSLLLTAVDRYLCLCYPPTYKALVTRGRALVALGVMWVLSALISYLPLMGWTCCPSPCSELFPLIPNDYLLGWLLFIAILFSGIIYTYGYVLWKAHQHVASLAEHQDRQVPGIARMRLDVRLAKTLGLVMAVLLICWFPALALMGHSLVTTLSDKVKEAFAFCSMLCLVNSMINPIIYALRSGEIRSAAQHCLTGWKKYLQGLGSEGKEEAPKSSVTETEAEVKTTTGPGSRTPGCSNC
value_kind: pKi
Answer as the number alone; pKi is minus log10 of concentration in mol/L.

• CCCCCn1cc(C(=O)NC2CCCCC2)c(=O)n2nc(-c3ccc(Cl)cc3)cc12 = 7.24
• CCCCCn1cc(C(=O)NC2CCCCC2)c(=O)n2nc(-c3ccccc3)cc12 = 7.30
• CCCCCn1cc(C(=O)NC2CCCCC2)c(=O)n2nc(C)cc12 = 7.59
• CCCCCn1cc(C(=O)NC23CC4CC(CC(C4)C2)C3)c(=O)n2nc(-c3ccoc3)cc12 = 7.91

Kindly consider the entry below.
Dear colleague, I am looking for the recorded pKi of the following molecule: CCCCCn1cc(C(=O)NC2CCCCC2)c(=O)n2nc(-c3ccco3)cc12
7.98

----------
system_name: Cannabinoid receptor 1 (Rattus norvegicus) (UniProt P20272)
Sequence (P20272 whole entry): as the sequence (P20272 whole entry) above
assay_remarks: Displacement of [3H]CP-55940 from Sprague-Dawley rat brain CB1 receptor at > 10 uM after 90 mins by scintillation counting analysis
Attribute: Activity
The answer is to be given in %; state only the numeric part.

Previously resolved entries follow.
- CCCCCn1cc(C(=O)NC2CCCCCC2)c(=O)n2nc(-c3ccc(C)cc3)cc12: 49
- CCCCCn1cc(C(=O)NC2CCCCC2)c(=O)n2nc(-c3ccc(C)cc3)cc12: 25
- CCCCCn1cc(C(=O)NC2CCCCC2)c(=O)n2nc(-c3ccc(Cl)cc3)cc12: 8
- CCCCCn1cc(C(=O)NC23CC4CC(CC(C4)C2)C3)c(=O)n2nc(-c3ccccc3C)cc12: 30
- CCCCCn1cc(C(=O)NC2CCCCC2)c(=O)n2nc(-c3ccco3)cc12: 30

Dear colleague, I am looking for the recorded Activity of the following molecule: CCCCCn1cc(C(=O)NC2CCCCCC2)c(=O)n2nc(-c3ccccc3Cl)cc12
42

# iterate: CCCCCn1cc(C(=O)NC23CC4CC(CC(C4)C2)C3)c(=O)n2nc(-c3ccccc3)cc12
40

# iterate: CCCCCn1cc(C(=O)NC23CC4CC(CC(C4)C2)C3)c(=O)n2nc(C)c(-c3ccc(OC)cc3)c12
5

# iterate: CCCCCn1cc(C(=O)NC23CC4CC(CC(C4)C2)C3)c(=O)n2nc(-c3cccs3)cc12
22

----------
Record type: Ki measurement. Applies to: Cannabinoid receptor 1 (Homo sapiens)

• CCCCCn1cc(C(=O)NC23CC4CC(CC(C4)C2)C3)c(=O)n2nc(-c3ccc(C)s3)cc12 = > 10 µM
• CCCCCn1cc(C(=O)NC2CCCCCC2)c(=O)n2nc(C)cc12 = 0.527 µM

Dear colleague, I am looking for the recorded Ki of the following molecule: CCCCCn1cc(C(=O)NC2CCCCCC2)c(=O)n2nc(CC)cc12
0.2 µM

# iterate: CCCCCn1cc(C(=O)NC2CCCCCC2)c(=O)n2nc(-c3ccc(C)cc3)cc12
> 10 µM

# iterate: CCCCCn1cc(C(=O)NC23CC4CC(CC(C4)C2)C3)c(=O)n2nc(-c3ccoc3)cc12
> 10 µM

# iterate: CCCCCn1cc(C(=O)NC2CCCCC2)c(=O)n2nc(C)cc12
1.28 µM

# iterate: CCCCCn1cc(C(=O)NC2CCCCC2)c(=O)n2nc(-c3ccccc3C)cc12
> 10 µM

----------
system_name: UniProt P21554
assay_remarks: Displacement of [3H]CP-55940 from human CB1 receptor expressed in CHO cell membrane at > 10 uM after 90 mins by scintillation counting analysis
Type: cell membranes
Please enter MET where Activity is greater than or equal to 30%, and NOT MET where it is lower.

- CCCCCn1cc(C(=O)NC2CCCCC2)c(=O)n2nc(-c3ccccc3Cl)cc12: MET
- CCCCCn1cc(C(=O)NC2CCCCCC2)c(=O)n2nc(-c3ccc(C)cc3)cc12: MET
- CCCCCn1cc(C(=O)NC23CC4CC(CC(C4)C2)C3)c(=O)n2nc(-c3c(Cl)cccc3Cl)cc12: NOT MET
- CCCCCn1cc(C(=O)NC23CC4CC(CC(C4)C2)C3)c(=O)n2nc(-c3ccc(C)cc3)cc12: MET

Next compound, please.
Is Activity for CCCCCn1cc(C(=O)NC2CCCCC2)c(=O)n2nc(-c3ccc(C)cc3)cc12 at or above 30%?
NOT MET

----------
system_name: Cannabinoid receptor 1 (Rattus norvegicus)
value_kind: Ki

Previously resolved entries follow.
• CCCCCn1cc(C(=O)NC2CCCCCC2)c(=O)n2nc(-c3ccc(C)cc3)cc12 = > 10 µM
• CCCCCn1cc(C(=O)NC23CC4CC(CC(C4)C2)C3)c(=O)n2nc(-c3ccccc3)cc12 = > 10 µM
• CCCCCn1cc(C(=O)NC23CC4CC(CC(C4)C2)C3)c(=O)n2nc(C)c(-c3ccccc3)c12 = > 10 µM
• CCCCCn1cc(C(=O)NC2CCCCCC2)c(=O)n2nc(-c3ccccc3C)cc12 = > 10 µM
• CCCCCn1cc(C(=O)NC23CC4CC(CC(C4)C2)C3)c(=O)n2nc(-c3ccc(C)s3)cc12 = > 10 µM
• CCCCCn1cc(C(=O)NC2CCCCC2)c(=O)n2nc(-c3ccccc3Cl)cc12 = > 10 µM

Dear colleague, I am looking for the recorded Ki of the following molecule: CCCCCn1cc(C(=O)NC23CC4CC(CC(C4)C2)C3)c(=O)n2nc(-c3ccc(C)cc3)cc12
> 10 µM

# iterate: CCCCCn1cc(C(=O)NC2CCC(C)CC2)c(=O)n2nc(C)cc12 (centres undefined)
2.6 µM

# iterate: CCCCCn1cc(C(=O)NC2CCCCC2)c(=O)n2nc(C)cc12
1.58 µM

----------
Record type: Ki measurement. Applies to: Cannabinoid receptor 2 (Rattus norvegicus)
I'd appreciate it if you included the unit after the number.

Previously resolved entries follow.
• CCCCCn1cc(C(=O)NC23CC4CC(CC(C4)C2)C3)c(=O)n2nc(-c3ccccc3Cl)cc12 = 6.32 nM
• CCCCCn1cc(C(=O)NC2CCCCCC2)c(=O)n2nc(-c3ccccc3C)cc12 = 9.53 nM
• CCCCCn1cc(C(=O)NC23CC4CC(CC(C4)C2)C3)c(=O)n2nc(-c3c(Cl)cccc3Cl)cc12 = 110 nM

Dear colleague, I am looking for the recorded Ki of the following molecule: CCCCCn1cc(C(=O)NCc2ccccc2)c(=O)n2nc(C)cc12
428 nM

# iterate: CCCCCn1cc(C(=O)NC2CCCCCC2)c(=O)n2nc(-c3ccco3)cc12
7.23 nM

# iterate: CCCCCn1cc(C(=O)NC2CCCCCC2)c(=O)n2nc(-c3ccccc3)cc12
35 nM

# iterate: CCCCCn1cc(C(=O)NC2CCCCC2)c(=O)n2nc(-c3ccccc3C)cc12
48 nM

# iterate: CCCCCn1cc(C(=O)NC2CCCCCC2)c(=O)n2nc(-c3ccc(C)cc3)cc12
13.2 nM

# iterate: CCCCCn1cc(C(=O)NC23CC4CC(CC(C4)C2)C3)c(=O)n2nc(-c3cc(C)cs3)cc12
18 nM

----------
system_name: Cannabinoid receptor 2 (Homo sapiens)
Sequence (P34972 whole entry): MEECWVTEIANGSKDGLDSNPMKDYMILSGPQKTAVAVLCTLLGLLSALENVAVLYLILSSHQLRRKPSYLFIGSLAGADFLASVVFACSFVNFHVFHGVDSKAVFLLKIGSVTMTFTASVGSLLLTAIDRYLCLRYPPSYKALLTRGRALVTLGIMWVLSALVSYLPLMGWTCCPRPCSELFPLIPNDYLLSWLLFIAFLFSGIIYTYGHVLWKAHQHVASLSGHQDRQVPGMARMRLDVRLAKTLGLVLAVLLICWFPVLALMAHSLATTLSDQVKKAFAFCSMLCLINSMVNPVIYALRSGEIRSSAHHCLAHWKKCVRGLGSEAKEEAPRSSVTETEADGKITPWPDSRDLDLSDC
assay_remarks: Inverse agonist activity at human CB2 receptor expressed in CHO cell membrane assessed as increase in forskolin-stimulated cAMP production at 10 uM by scintillation counting analysis relative to WIN55212-2
Attribute: Activity
The answer is to be given in %; state only the numeric part.

Previously resolved entries follow.
- CCCCCn1cc(C(=O)NC2CCCCCC2)c(=O)n2nc(-c3ccc(Cl)cc3)cc12: 162
- CCCCCn1cc(C(=O)NCc2ccccc2)c(=O)n2nc(C)cc12: 52
- CCCCCn1cc(C(=O)NC2CCCCCC2)c(=O)n2nc(CC)cc12: 159
- CCCCCn1cc(C(=O)NC2CCCCC2)c(=O)n2nc(-c3ccccc3)cc12: 123
- CCCCCn1cc(C(=O)NC23CC4CC(CC(C4)C2)C3)c(=O)n2nc(-c3cccs3)cc12: 102
- CCCCCn1cc(C(=O)NC2CCCCC2)c(=O)n2nc(C(C)(C)C)cc12: 115

Dear colleague, I am looking for the recorded Activity of the following molecule: CCCCCn1cc(C(=O)NC23CC4CC(CC(C4)C2)C3)c(=O)n2nc(C)c(-c3ccccc3)c12
51

# iterate: CCCCCn1cc(C(=O)NC23CC4CC(CC(C4)C2)C3)c(=O)n2nc(-c3ccoc3)cc12
92

# iterate: CCCCCn1cc(C(=O)NC2CCCCCC2)c(=O)n2nc(-c3ccc(Cl)cc3Cl)cc12
77
